# Test system: Escherichia coli TOP10;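 also: peptides expressed intracellularly from a pBAD plasmid library in pooled LB shake-flask culture, induced with 0.3% L-arabinose, DNA abundance read by NGS, three biological replicates, DESeq2 with apeglm shrinkage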
# Assay Text: shrunken log2 fold change of peptide-encoding DNA abundance (4.5 h post-induction vs induction); higher = less antimicrobial activity (less host growth inhibition)
# Measurement Conditions: time post-induction: 4.5 h; library: site-saturation at positions 5, 18, 19, 20
Measure: shrunken log2 fold change
API note: the answer field is a bare number with no unit suffix.

// below: answered sequences
[[record]]
construct_sequence = "RRIRMRPPRLPRPRPRPSWHPRP"
measure = "shrunken log2 fold change"
value_reported = -0.103

[[record]]
construct_sequence = "RRIRERPPRLPRPRPRPWSWPRP"
measure = "shrunken log2 fold change"
value_reported = 0.103

[[record]]
construct_sequence = "RRIRIRPPRLPRPRPRPYSIPRP"
measure = "shrunken log2 fold change"
value_reported = -0.129

[[record]]
construct_sequence = "RRIRGRPPRLPRPRPRPRRWPRP"
measure = "shrunken log2 fold change"
value_reported = 0.841

[[record]]
construct_sequence = "RRIRKRPPRLPRPRPRPSAGPRP"
measure = "shrunken log2 fold change"
value_reported = 0.227

[[record]]
construct_sequence = "RRIRWRPPRLPRPRPRPDNPPRP"
measure = "shrunken log2 fold change"
value_reported = 0.208


Q. Fill in: shrunken log2 fold change of RRIRIRPPRLPRPRPRPKNWPRP is ___
A. -0.035

Q. Now the sequence RRIRQRPPRLPRPRPRPDIWPRP
A. -0.214

Q. How about this sequence: RRIRQRPPRLPRPRPRPFFHPRP
A. -0.532

Q. RRIRHRPPRLPRPRPRPSNWPRP , same question.
A. -0.106

Q. And the next one, RRIRYRPPRLPRPRPRPVHWPRP ?
A. 0.0233
